Just for reference, patent US20120202814A1 is where these values come from.

Biological target: human DDX3 (ATPase activity) (Homo sapiens)
Construct: made in house; host or cells: E. coli
Sequence (O00571 whole entry): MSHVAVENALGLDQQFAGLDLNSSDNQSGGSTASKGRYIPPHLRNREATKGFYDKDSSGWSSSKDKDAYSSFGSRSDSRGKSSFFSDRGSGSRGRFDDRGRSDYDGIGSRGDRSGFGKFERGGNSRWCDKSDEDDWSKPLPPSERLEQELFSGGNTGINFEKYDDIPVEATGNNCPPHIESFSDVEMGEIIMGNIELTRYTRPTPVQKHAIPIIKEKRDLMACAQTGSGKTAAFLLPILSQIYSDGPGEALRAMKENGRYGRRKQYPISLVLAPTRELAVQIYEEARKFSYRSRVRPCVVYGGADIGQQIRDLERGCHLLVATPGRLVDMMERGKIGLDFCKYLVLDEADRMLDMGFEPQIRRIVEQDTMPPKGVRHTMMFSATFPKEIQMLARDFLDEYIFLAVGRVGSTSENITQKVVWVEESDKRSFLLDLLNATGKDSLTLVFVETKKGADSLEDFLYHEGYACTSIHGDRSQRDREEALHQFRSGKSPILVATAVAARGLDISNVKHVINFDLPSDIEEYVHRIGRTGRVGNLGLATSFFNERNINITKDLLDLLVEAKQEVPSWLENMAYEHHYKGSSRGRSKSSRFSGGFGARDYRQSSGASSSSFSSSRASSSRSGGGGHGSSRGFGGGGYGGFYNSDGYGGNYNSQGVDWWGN
Experiment: Human DDX3 ATPase activity assay (luciferase-based luminescence)
Type: biochemical
Conditions: DDX3 ATPase activity; read-out: Ki (μM), apparent equilibrium dissociation constant for the inhibitor to the target enzyme DDX3
The entries below come with measured Ki values attached.
Enter the number, and then the unit.

Record excerpt, results attached:
- molecule: "COc1ccc(/C=C2\\SC(=S)N(CCC(=O)Nc3ccccc3C(=O)O)C2=O)cc1"
  Ki: "2 µM"
- molecule: "COc1ccc(Nc2nc(NCc3ccco3)nc(N/N=C/c3ccc(-c4ccccc4[N+](=O)[O-])o3)n2)cc1 [FE-56Z]"
  Ki: "1.9 µM"
- molecule: "O=[N+]([O-])c1ccc(Cl)c(-c2ccc(/C=N/Nc3nc(Nc4ccc(F)cc4)nc(N4CCOCC4)n3)o2)c1 [FE-56V]"
  Ki: "3.6 µM"
- molecule: "Clc1ccc(-c2ccc(/C=N/Nc3nc(Nc4ccccc4)nc(N4CCCCC4)n3)o2)cc1 [FE-56N]"
  Ki: "0.4 µM"

Kindly consider the entry below.
Task: Please report the recorded Ki for Clc1ccccc1-c1ccc(/C=N/Nc2nc(Nc3ccccc3)nc(N3CCOCC3)n2)o1 [FE-56AA] .
Result: 3.2 µM

---

Target: human DDX3 (ATPase activity) (Homo sapiens)
Construct: made in house; host or cells: E. coli
Assay: Human DDX3 ATPase activity assay (luciferase-based luminescence)
Assay type: biochemical
Conditions: DDX3 ATPase activity; read-out: Ki (μM), apparent equilibrium dissociation constant for the inhibitor to the target enzyme DDX3
The entries below come with measured Ki values attached.
Express your answer in µM, writing the number without its unit.

Task: Please report the recorded Ki for O=C1Nc2ccccc2/C1=N/Nc1nc(NCc2cccc(Cl)c2)nc(N2CCOCC2)n1 [Compound 14f] .
Result: 2.9

---

Experiment: Cell viability / cytotoxicity on PBMCs
Type: cell-based
Conditions: human; PBMCs; Table 2 prints no unit; read-out: Cytotoxicity (CC50) PBMCs, dose required to reduce 50% cell vitality
test readout: CC50 (µM)
Express your answer in µM, writing the number without its unit.

Record excerpt, results attached:
- compound: "Oc1ccccc1/C=N/Nc1nc(Nc2ccc(F)cc2)nc(Nc2ccc(F)cc2)n1"
  quantity unit: "µM"
  CC50: 8
- compound: "Oc1ccccc1/C=N/Nc1nc(Nc2ccc(F)cc2)nc(N2CCOCC2)n1 [Compound 16c]"
  quantity unit: "µM"
  CC50: 10

Task: Please report the recorded CC50 for O=C(CCN1C(=O)/C(=C/c2cccc(F)c2)SC1=S)Nc1ccccc1O [Compound 35b] .
Result: 50

---

Target: human DDX3 (ATPase activity) (Homo sapiens)
Construct: made in house; host or cells: E. coli
Assay: Human DDX3 ATPase activity assay (luciferase-based luminescence)
Assay type: biochemical
Settings: DDX3 ATPase activity; read-out: Ki (μM), apparent equilibrium dissociation constant for the inhibitor to the target enzyme DDX3
Description: ATPase activity was tested with a luciferase-based luminescence assay (Easylite-Kinase, Perkin Elmer) on 96 wells microtiter plates. […] Reading was performed with a Microbeta Trilux (Perkin Elmer) luminometer, according to the manufacturer's protocol. […] The anti-DDX3 activity of the compounds of the invention was evaluated by in vitro ATPase activity assay using the recombinant human DDX3 protein produced in E. coli. […]
test readout: Ki (µM)
Express your answer in µM, writing the number without its unit.

- compound: "Fc1ccc(Nc2nc(N/N=C/c3c(F)cccc3F)nc(N3CCOCC3)n2)cc1 [Compound 11c]"
  result: 2.6
- compound: "Fc1ccc(Nc2nc(N/N=C/c3cccc4ccccc34)nc(N3CCOCC3)n2)cc1 [Compound 11a]"
  result: 86
- compound: "O=C(CCN1C(=O)/C(=C/c2cccc(Br)c2)SC1=S)Nc1ccccc1[N+](=O)[O-] [Compound 35g]"
  result: 8.7

Kindly consider the entry below.
Task: Could you share what Ki was measured for Fc1ccc(Nc2nc(N/N=C/c3ccc4ccccc4c3)nc(N3CCOCC3)n2)cc1 [Compound 11b] , tested on human DDX3 (ATPase activity) (Homo sapiens)?
Result: 8.5

---

test readout: melting point

Record excerpt, results attached:
- compound: "Fc1ccc(Nc2nc(N/N=C/c3c(F)cccc3F)nc(N3CCOCC3)n2)cc1 [Compound 11c]"
  melting point: "155.5 to 156 °C"
- compound: "O=C1/C(=C/c2cccc(Br)c2)SC(=S)N1Cc1ccccc1"
  melting point: "112 to 113 °C"
- compound: "C#CN1C(=O)/C(=C/c2cccc(Br)c2)SC1=S"
  melting point: "159 to 161 °C"
- compound: "COc1cccc(/C=C2\\SC(=S)N(CCC(=O)Nc3ccccc3O)C2=O)c1 [Compound 35e]"
  melting point: "200 to 202 °C"
- compound: "O=C(CCN1C(=O)/C(=C/c2cccc(F)c2)SC1=S)Nc1ccccc1O [Compound 35b]"
  melting point: "210 to 211 °C"
- compound: "Fc1ccc(Nc2nc(N/N=C/c3cccc4ccccc34)nc(N3CCOCC3)n2)cc1 [Compound 11a]"
  melting point: "220 to 220.4 °C"
- compound: "COc1cccc(/C=C2\\SC(=S)N(CCc3ccccc3)C2=O)c1"
  melting point: "122 to 125 °C"
- compound: "Oc1ccccc1/C=N/Nc1nc(Nc2ccc(F)cc2)nc(N2CCOCC2)n1 [Compound 11d]"
  melting point: "234 °C"

Task: Please report the recorded melting point for Oc1ccccc1/C=N/Nc1nc(NCc2cccc(Cl)c2)nc(N2CCOCC2)n1 [Compound 15j] .
Result: 163.5 to 164 °C

Task: Record: O=C1/C(=C/c2ccco2)SC(=S)N1CCc1ccccc1
Result: 150 to 152 °C

Task: Record: O=C(CCN1C(=O)/C(=C/c2cccc(F)c2)SC1=S)Nc1ccccc1[N+](=O)[O-] [Compound 35h]
Result: 207 to 208 °C

Task: Record: O=C(CCN1C(=O)/C(=C/c2cccc(Br)c2)SC1=S)Nc1ccccc1O
Result: 222 to 224 °C

Task: Record: Cc1cccc(/C=C2\SC(=S)N(CCC(=O)Nc3ccccc3O)C2=O)c1 [Compound 35d]
Result: 208 to 209 °C

Task: Record: O=C1/C(=C/c2ccc3ccccc3c2)SC(=S)N1CCc1ccccc1
Result: 174 to 176 °C

---

The entries below come with measured CC50 values attached.
Test: Cell viability / cytotoxicity on MOLT-4 cells
Format: cell-based
Settings: human, MOLT-4 cells; MOLT-4; Table 2 prints no unit; read-out: Cytotoxicity (CC50) MOLT-4, dose required to reduce 50% cell vitality
Express your answer in µM, writing the number without its unit.

Record excerpt, results attached:
- compound: "Oc1ccccc1/C=N/Nc1nc(Nc2ccc(F)cc2)nc(Nc2ccc(F)cc2)n1 [Compound 38]"
  CC50, µM: 10
- compound: "Oc1ccccc1/C=N/Nc1nc(Nc2ccc(F)cc2)nc(N2CCOCC2)n1 [Compound 16c]"
  CC50, µM: 5

Kindly consider the entry below.
Task: Please report the recorded CC50 for O=C(CCN1C(=O)/C(=C/c2cccc(F)c2)SC1=S)Nc1ccccc1O [Compound 35b] .
Result: 50

---

Target: human DDX3 (ATPase activity) (Homo sapiens)
Construct: made in house; host or cells: E. coli
Assay: Human DDX3 ATPase activity assay (luciferase-based luminescence)
Assay type: biochemical
Conditions: DDX3 ATPase activity; read-out: Ki (μM), apparent equilibrium dissociation constant for the inhibitor to the target enzyme DDX3
test readout: Ki (µM)
Express your answer in µM, writing the number without its unit.

- compound: "CCN(CC)c1nc(NCc2ccccc2)nc(N/N=C/c2ccccc2O)n1 [Compound 15k]"
  quantity unit: "µM"
  Ki: 0.5
- compound: "COc1ccc(Nc2nc(NCc3ccco3)nc(N/N=C/c3cc([N+](=O)[O-])ccc3O)n2)cc1 [FE-56A]"
  quantity unit: "µM"
  Ki: 31.7
- compound: "O=C(Oc1cccc(/C=N/Nc2nc(Nc3ccccc3)nc(N3CCOCC3)n2)c1)c1ccco1 [FE-56U]"
  quantity unit: "µM"
  Ki: 6.3

Task: Please report the recorded Ki for O=C(CCN1C(=O)/C(=C/c2cc(F)cc(F)c2)SC1=S)Nc1ccccc1O [Compound 35c] .
Result: 0.5

Task: Record: O=C(CCN1C(=O)/C(=C/c2cccc(F)c2)SC1=S)Nc1ccccc1[N+](=O)[O-] [Compound 35h]
Result: 7.6

Task: Record: COc1cccc(/C=C2\SC(=S)N(CCC(=O)Nc3ccccc3O)C2=O)c1 [Compound 35e]
Result: 10

Task: Record: CC(=O)Nc1ccc(/C(C)=N/Nc2nc(NCc3ccccc3)nc(N3CCOCC3)n2)cc1 [FE-56AN]
Result: 0.5

Task: Record: O=C(CCN1C(=O)/C(=C/c2cccc(Br)c2)SC1=S)Nc1ccccc1O [FE-15]
Result: 4.5

---

Experiment: Cell viability / cytotoxicity on HeLa cells
Type: cell-based
Settings: human, HeLa cells (cervical cancer cell line); read-out: CC50, cytotoxicity on HeLa cells
test readout: CC50

Task: Please report the recorded CC50 for O=C(CCN1C(=O)/C(=C/c2cccc(Br)c2)SC1=S)Nc1ccccc1O .
Result: > 200 µM
